# system.tested: Voltage-gated inwardly rectifying potassium channel KCNH2 (Homo sapiens)
# Sequence (Q12809 whole entry): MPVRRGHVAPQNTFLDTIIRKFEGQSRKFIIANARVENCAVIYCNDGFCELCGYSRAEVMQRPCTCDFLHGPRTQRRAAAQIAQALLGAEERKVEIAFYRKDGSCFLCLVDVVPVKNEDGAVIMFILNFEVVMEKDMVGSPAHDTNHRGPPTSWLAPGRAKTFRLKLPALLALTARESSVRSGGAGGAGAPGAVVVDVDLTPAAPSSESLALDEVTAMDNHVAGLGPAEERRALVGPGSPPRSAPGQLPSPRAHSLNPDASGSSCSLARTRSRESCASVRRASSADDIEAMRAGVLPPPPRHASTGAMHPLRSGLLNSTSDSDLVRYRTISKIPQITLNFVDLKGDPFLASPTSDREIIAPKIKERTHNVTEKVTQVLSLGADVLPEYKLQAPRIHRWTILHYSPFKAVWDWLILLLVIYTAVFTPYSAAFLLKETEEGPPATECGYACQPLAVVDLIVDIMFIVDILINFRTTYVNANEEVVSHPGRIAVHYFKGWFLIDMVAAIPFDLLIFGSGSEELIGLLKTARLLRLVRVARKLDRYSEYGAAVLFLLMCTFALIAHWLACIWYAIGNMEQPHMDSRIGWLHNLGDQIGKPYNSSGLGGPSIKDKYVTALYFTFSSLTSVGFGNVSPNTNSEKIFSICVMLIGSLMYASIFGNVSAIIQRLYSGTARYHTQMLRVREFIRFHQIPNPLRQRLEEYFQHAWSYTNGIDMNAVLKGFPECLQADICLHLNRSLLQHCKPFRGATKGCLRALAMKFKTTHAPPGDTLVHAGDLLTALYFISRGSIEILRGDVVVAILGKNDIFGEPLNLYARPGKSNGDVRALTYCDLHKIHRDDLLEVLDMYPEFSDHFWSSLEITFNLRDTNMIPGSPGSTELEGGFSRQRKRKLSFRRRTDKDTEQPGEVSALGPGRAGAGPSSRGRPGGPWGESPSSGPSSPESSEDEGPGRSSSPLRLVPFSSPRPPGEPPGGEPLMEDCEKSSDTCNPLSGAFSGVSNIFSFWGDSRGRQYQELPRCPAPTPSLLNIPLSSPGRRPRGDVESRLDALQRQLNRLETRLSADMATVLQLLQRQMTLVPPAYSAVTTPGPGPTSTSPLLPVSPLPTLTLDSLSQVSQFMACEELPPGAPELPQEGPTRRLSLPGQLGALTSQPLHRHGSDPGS
# protocol.text: Inhibition of human ERG transfected in CHO cells by automated patch method
quantity.measured: IC50

NC(=O)[C@@H]1CCCN1C(=O)c1ccc(NC(=O)Nc2ccc(-c3nc(N4CCOCC4)nc(N4CCOCC4)n3)cc2)cc1 : > 30 µM

----------
# system.tested: Phosphatidylinositol 4,5-bisphosphate 3-kinase catalytic subunit alpha isoform (Homo sapiens, UniProt P42336)
# Sequence (P42336 whole entry, canonical isoform): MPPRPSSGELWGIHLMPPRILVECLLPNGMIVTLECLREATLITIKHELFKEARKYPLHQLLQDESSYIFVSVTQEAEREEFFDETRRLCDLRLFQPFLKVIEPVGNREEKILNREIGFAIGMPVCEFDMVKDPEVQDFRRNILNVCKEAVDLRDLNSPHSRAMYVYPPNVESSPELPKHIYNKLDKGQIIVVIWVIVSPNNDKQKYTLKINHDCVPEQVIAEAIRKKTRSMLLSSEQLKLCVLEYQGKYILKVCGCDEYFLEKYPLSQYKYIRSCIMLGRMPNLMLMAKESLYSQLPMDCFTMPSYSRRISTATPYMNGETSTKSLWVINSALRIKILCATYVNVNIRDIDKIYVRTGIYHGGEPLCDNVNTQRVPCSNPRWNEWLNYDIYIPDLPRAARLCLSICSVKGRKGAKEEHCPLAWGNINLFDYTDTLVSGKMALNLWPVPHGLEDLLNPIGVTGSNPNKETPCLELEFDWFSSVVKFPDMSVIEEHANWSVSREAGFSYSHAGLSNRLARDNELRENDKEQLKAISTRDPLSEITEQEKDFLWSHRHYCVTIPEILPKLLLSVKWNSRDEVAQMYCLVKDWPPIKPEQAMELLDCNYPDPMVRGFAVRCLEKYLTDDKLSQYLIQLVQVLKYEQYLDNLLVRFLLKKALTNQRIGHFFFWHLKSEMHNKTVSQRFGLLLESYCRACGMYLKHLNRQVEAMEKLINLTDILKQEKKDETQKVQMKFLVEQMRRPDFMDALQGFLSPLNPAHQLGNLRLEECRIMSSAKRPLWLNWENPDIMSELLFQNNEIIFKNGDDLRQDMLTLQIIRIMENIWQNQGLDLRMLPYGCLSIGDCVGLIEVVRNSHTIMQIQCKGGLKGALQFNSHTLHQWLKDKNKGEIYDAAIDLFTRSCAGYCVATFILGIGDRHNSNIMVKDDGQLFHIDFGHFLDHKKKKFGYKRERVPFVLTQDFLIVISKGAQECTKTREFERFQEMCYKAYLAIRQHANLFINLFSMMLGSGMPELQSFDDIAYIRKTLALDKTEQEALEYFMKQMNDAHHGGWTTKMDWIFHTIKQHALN
# protocol.text: Inhibition of PI3Kalpha (unknown origin) using PIP2 as substrate in presence of ATP incubated for 60 mins by ADP-glo based luminescence assay
pIC50: −log10 of the molar value.
Entries and their measured pIC50 follow.
quantity.measured: pIC50

NC(=O)[C@@H]1CCCN1C(=O)c1cnc(Nc2ccc(-c3nc(N4CCOCC4)nc(N4CCOCC4)n3)cc2)nc1 : 6.17
COC(=O)[C@@H]1C[C@@H](O)CN1C(=O)c1ccc(NC(=O)Nc2ccc(-c3nc(N4CCOCC4)nc(N4CCOCC4)n3)cc2)cc1 : 7.54
CN(C)C1CCN(C(=O)c2ccc(NC(=O)Nc3ccc(-c4nc(N5CCOCC5)nc(N5C[C@@H]6OCCO[C@H]6C5)n4)cc3)cc2)CC1 : 7.99
NC(=O)[C@H]1CCCN1C(=O)c1ccc(NC(=O)Nc2ccc(-c3cc(N4CCOCC4)nc(N4CCOCC4)n3)cc2)cc1 : 8.24
COC(=O)[C@@H]1CCCN1C(=O)c1ccc(NC(=O)Nc2ccc(-c3nc(N4CCOCC4)nc(N4CCOCC4)n3)cc2)cc1 : 7.72
C[C@H]1COCCN1c1ccnc(-c2ccc(NC(=O)Nc3ccc(C(=O)N4CCC[C@H]4C(N)=O)cc3)cc2)n1 : 7.54
